Assay: in vitro
Details: human, hela cells, % viability
value type: viability at 28.5 h, 10 µM (%)
Field format: number, assumed %, no unit text.

O=C(Nc1nccs1)c1ccc2[nH]ccc2c1 has a reported viability at 28.5 h, 10 µM of 90.5

Cc1ccc2[nH]c3c(c2c1)CCNC31CCN(CC2CCCCO2)CC1 (stereo not shown) has a reported viability at 28.5 h, 10 µM of 103

O=S(=O)(Nc1ccc(C(O)(C(F)(F)F)C(F)(F)F)cc1)c1cccc2cccnc12 has a reported viability at 28.5 h, 10 µM of 91

CC(=O)Nc1cccc(NC(=O)c2cnc3sc(C)cn3c2=O)c1 has a reported viability at 28.5 h, 10 µM of 92

CN(C(=S)NCc1ccccc1)C1CC[C@@]2(c3ccc(F)cc3)CCN(C)[C@H]2C1 (stereo partly shown) [CBK003500C] has a reported viability at 28.5 h, 10 µM of 90.1

CCN1C(=O)C2(CC(=O)N(CC3CCCCC3)C2=O)c2cc(C)ccc21 (stereo not shown) has a reported viability at 28.5 h, 10 µM of 98.2

Cc1ccc(NC(=S)N2CCN(C/C=C/c3ccccc3)CC2)cc1 has a reported viability at 28.5 h, 10 µM of 98.9

N#CCCCN1CCC2(CC1)CN(CC(N)=O)c1ccccc12 has a reported viability at 28.5 h, 10 µM of 97.7

Fc1ccc(-c2cc(C(F)(F)F)nc(NCC3CCCO3)n2)cc1 (stereo not shown) has a reported viability at 28.5 h, 10 µM of 89.1

O=CN1CCN(S(=O)(=O)c2ccc3c(c2)Cc2cc(S(=O)(=O)N4CCN(C=O)CC4)ccc2-3)CC1 has a reported viability at 28.5 h, 10 µM of 98.8

FC(F)(F)c1nc2ccccc2nc1OCCN1CCNCC1 has a reported viability at 28.5 h, 10 µM of 99.4

CCOC(=O)CN1C(=O)S/C(=C/c2cc(C)n(-c3ccc(S(N)(=O)=O)cc3)c2C)C1=O has a reported viability at 28.5 h, 10 µM of 94

CCC(NC(=O)c1ccc(C(C)(C)C)[nH]c1=O)c1ccc(OC)cc1 (stereo not shown) has a reported viability at 28.5 h, 10 µM of 87.8

Cc1ccc(S(=O)(=O)N2c3ccc(C(=O)O)cc3CC2C)cc1 (stereo not shown) has a reported viability at 28.5 h, 10 µM of 82.6

CCCCc1ccc(S(=O)(=O)c2cnc(SCC(=O)Nc3ccc(Cl)cc3)[nH]c2=O)cc1 has a reported viability at 28.5 h, 10 µM of 106

Cc1[nH]n(-c2nc3ccccc3o2)c(=O)c1Cc1c(Cl)cccc1Cl has a reported viability at 28.5 h, 10 µM of 96.5

Cc1coc(C)c1C(=O)CC1(O)C(=O)N(CCc2ccccc2)c2ccccc21 (stereo not shown) has a reported viability at 28.5 h, 10 µM of 84.8

CC(C)(C)c1cn(C[C@H]2CC3CCN2C[C@@H]3C(=O)NCc2ccc(F)cc2)nn1 (stereo partly shown) has a reported viability at 28.5 h, 10 µM of 102

O=C(CN1CCN(c2ccccc2)CC1)Nc1ccc(Cl)cc1C(=O)c1ccccc1 has a reported viability at 28.5 h, 10 µM of 107

Cc1cccc(Oc2nc3c(C)cccn3c(=O)c2/C=C(\C#N)c2nc3ccccc3[nH]2)c1 has a reported viability at 28.5 h, 10 µM of 104

O=C(Nc1cccc(Cl)c1Cl)c1cccs1 has a reported viability at 28.5 h, 10 µM of 104

Cc1ccc2oc(CN3CCn4cnnc4C3)c(C)c2c1 has a reported viability at 28.5 h, 10 µM of 109

O=C(NCCc1cccnc1)C1CCCN(c2nc3c(-c4ccccc4)csc3c(=O)[nH]2)C1 (stereo not shown) has a reported viability at 28.5 h, 10 µM of 88.7

O=C(Nc1ccccc1N1CCCNCC1)c1ccnc2ccccc12 [CBK036325T] has a reported viability at 28.5 h, 10 µM of 83.4

O=C(Nc1ccc2[nH]c(=O)[nH]c2c1)c1ccc2[nH]ccc2c1 has a reported viability at 28.5 h, 10 µM of 97.5

Cc1nc(=O)c(-c2ccccc2)c(C)n1-c1ccc2cn[nH]c2c1 has a reported viability at 28.5 h, 10 µM of 100

COc1ccc(-c2cccc(N3CCN(CCN4CCCC4)CC3)n2)cc1OC has a reported viability at 28.5 h, 10 µM of 84.9

CC(NC(=O)c1cccc2ccccc12)c1ccc2ccccc2c1 (stereo not shown) has a reported viability at 28.5 h, 10 µM of 90.1

O=C(Nc1nnc(C2=COCCO2)o1)c1cc(Cl)cc(Cl)c1 has a reported viability at 28.5 h, 10 µM of 91.1

COc1ccc(OC)c([C@@H]2CN(Cc3ccccc3)C[C@H]2NC(=O)c2ccco2)c1 has a reported viability at 28.5 h, 10 µM of 96.3

COc1ccc(-c2cc(C(=O)Nc3ccc(OC(F)(F)F)cc3)cnc2-c2ccccc2)cn1 has a reported viability at 28.5 h, 10 µM of 79.2

CCOC(=O)C(C)NC(=O)c1ccc2nc(C)sc2c1 (stereo not shown) has a reported viability at 28.5 h, 10 µM of 85.5

CCN(CC)C(=O)CN1CCC(c2ccc(OC)cc2)CC1 has a reported viability at 28.5 h, 10 µM of 102

O=C(Cn1nc2n(c1=O)CCCCC2)NCc1ccccc1Cl has a reported viability at 28.5 h, 10 µM of 86.6

FC(F)(F)c1ccnc(OCCOc2ccc(Cl)cc2)n1 has a reported viability at 28.5 h, 10 µM of 90.8

CCOc1ccnc(N2CCN(C(=O)CCc3ccsc3)CC2)n1 has a reported viability at 28.5 h, 10 µM of 99.4

O=S(=O)(NC[C@H]1C[C@@H]2CC[N@]1C[C@@H]2CN1CCOCC1)c1ccc(Cl)cc1 has a reported viability at 28.5 h, 10 µM of 92.4
